System: foxtail, giant
Experiment: Test A preemergence
Type: in vivo, Setaria faberii
Details: Preemergence, 500 g ai/ha; 0 to 100 scale, 0 no effect, 100 complete control
Each item that follows carries a reported Foxtail, Giant plant response rating.
Give a plain numeric answer without units written out.

Take a look at these entries with their results.
molecule="CCNC(=O)c1cc(C)n(Cc2cccc(OC(F)(F)F)c2)n1 [Compound 4]" recorded_result=60
molecule="Cc1cc(C(=O)NCC(F)(F)C(F)(F)F)nn1Cc1cccc(C(F)(F)F)c1 [Compound 8]" recorded_result=0

Endpoint output: Foxtail, Giant plant response rating of CCc1cc(C(=O)NCC(F)(F)F)nn1Cc1ccnc(C(F)(F)F)c1 [Compound 78] . Value? 100

What do you have for Cc1cc(C(=O)NC2CC2)nn1Cc1cccc(OC(F)(F)F)c1 [Compound 21] ? 100

What do you have for CCc1cc(C(=O)NOC(C)(C)CC)nn1Cc1cccc(OC(F)(F)F)c1 [Compound 71] ? 100

What do you have for CCc1cc(C(=O)NC2CC2)nn1Oc1ccnc(C(F)(F)F)c1 [Compound 83] ? 100

---

Tested on: oilseed rape
Assay: Test C postemergence
Assay type: in vivo, Brassica napus
Conditions: postemergence, 62 g ai/ha; scale 0 to 100
Readout Kind: Oilseed Rape plant response rating
Give a plain numeric answer without units written out.

compound="CCc1cc(C(=O)NC(C)C)nn1Cc1ccnc(C(F)(F)F)c1 [Compound 139]" readout_kind="Oilseed Rape plant response rating" recorded_result=45
compound="CCc1cc(C(=O)NCC2CC2)nn1Cc1ccnc(C(F)(F)F)c1 [Compound 199]" readout_kind="Oilseed Rape plant response rating" recorded_result=45
compound="CCc1cc(C(=O)NCC(F)(F)F)nn1Cc1cc(OC(F)F)nn1C [Compound 206]" readout_kind="Oilseed Rape plant response rating" recorded_result=5

Endpoint output: Oilseed Rape plant response rating of CCOc1cc(C(=O)NC2CC2)nn1Cc1ccnc(OC(F)F)c1 [Compound 133] . Value? 60

What do you have for CCOc1cc(C(=O)NCC(F)(F)F)nn1Cc1ccnc(C(F)(F)F)c1 [Compound 104] ? 50

What do you have for Cc1cc(C(=O)NC(C)C)nn1Cc1ccnc(C(F)(F)F)c1 [Compound 197] ? 5

---

System: pigweed
Experiment: Test A postemergence
Format: in vivo, Amaranthus retroflexus
Conditions: postemergence, 125 g ai/ha, about 10 days, visual rating on 0 to 100 scale (0 no effect, 100 complete control)
Each item that follows carries a reported Pigweed plant response rating.
Give a plain numeric answer without units written out.

Take a look at these entries with their results.
chemical_string=CCc1cc(-c2ccc(C(F)(F)F)cc2)nn1C(=O)c1ccnc(C(F)(F)F)c1 recorded_result=30
chemical_string=CCc1cc(C(=O)NCC(F)(F)F)nn1Oc1cccc(C(F)(F)F)n1 recorded_result=0
chemical_string=CCc1cc(C(=O)NC2CC2)nn1Cc1ccnc(OC(F)F)c1 recorded_result=100
chemical_string=CCCNC(=O)c1cc(CC)n(Cc2nc(C(F)(F)F)no2)n1 recorded_result=20
chemical_string=CCc1cc(C(=O)NCC(F)(F)F)nn1Oc1ccnc(C(F)(F)F)c1 recorded_result=10

Endpoint output: Pigweed plant response rating of CCCc1cc(C(=O)NCC(F)(F)F)nn1Cc1cc(C(F)(F)F)nn1C . Value? 100

---

System: velvetleaf
Test: Test C postemergence
Assay type: in vivo, Abutilon theophrasti
Conditions: postemergence, 62 g ai/ha; scale 0 to 100
Each item that follows carries a reported Velvetleaf plant response rating.
Give a plain numeric answer without units written out.

molecule="CCCNC(=O)c1cc(CC)n(Cc2ccnc(OC(F)F)c2)n1 [Compound 132]" recorded_result=15
molecule="CCOc1cc(C(=O)NCC(F)(F)F)nn1Cc1ccnc(C(F)(F)F)c1 [Compound 104]" recorded_result=40

Endpoint output: Velvetleaf plant response rating of CCc1cc(C(=O)NOC(C)C)nn1Cc1ccnc(C(F)(F)F)c1 [Compound 101] . Value? 25

What do you have for CCc1cc(C(=O)NC2CC2)nn1Cc1ccnc(OC(F)F)c1 [Compound 98] ? 20

---

Each item that follows carries a reported Buckwheat, Wild plant response rating.
System: buckwheat, wild
Assay: Test D postemergence
Type: in vivo, Polygonum convolvulus
Settings: Postemergence, 125 g ai/ha, scale 0 to 100
Give a plain numeric answer without units written out.

chemical_string=CCOc1cc(C(=O)NC2CC2)nn1Cc1ccnc(C(F)(F)F)c1 readout_kind="Buckwheat, Wild plant response rating" recorded_result=70
chemical_string=CCOc1cc(C(=O)NC(C)C)nn1Cc1ccnc(C(F)(F)F)c1 readout_kind="Buckwheat, Wild plant response rating" recorded_result=70
chemical_string=CCc1cc(C(=O)NCC(F)(F)F)nn1Cc1ccnc(C(F)(F)F)c1 readout_kind="Buckwheat, Wild plant response rating" recorded_result=65

Next compound, Buckwheat, Wild plant response rating to be filled in.
Endpoint output: Buckwheat, Wild plant response rating of CCCc1cc(C(=O)NCC(F)(F)F)nn1Cc1ccnc(C(F)(F)F)c1 . Value? 70

---

Each item that follows carries a reported Foxtail, Giant plant response rating.
Tested on: foxtail, giant
Assay: Test A postemergence
Type: in vivo, Setaria faberii
Settings: Postemergence, 500 g ai/ha; visual rating after approx. 10 days, 0 to 100 scale (0 no effect, 100 complete control)
Give a plain numeric answer without units written out.

Take a look at these entries with their results.
compound="CCCCNC(=O)c1cc(CC)n(Oc2ccnc(C(F)(F)F)c2)n1 [Compound 86]" recorded_result=40
compound="CCc1cc(C(=O)NCC(F)(F)F)nn1Oc1ccnc(C(F)(F)F)c1 [Compound 84]" recorded_result=50

// lookup Foxtail, Giant plant response rating | system=foxtail, giant | key= CCc1cc(C(=O)NOC(C)C)nn1Cc1ccnc(C(F)(F)F)c1 [Compound 101] 90

---

Each item that follows carries a reported Foxtail, Giant plant response rating.
Test system: foxtail, giant
Assay: Test A postemergence
Assay type: in vivo, Setaria faberii
Conditions: Postemergence, 500 g ai/ha; visual rating after approx. 10 days, 0 to 100 scale (0 no effect, 100 complete control)
Give a plain numeric answer without units written out.

Take a look at these entries with their results.
chemical_string=Cc1cc(C(=O)NC2CC2)nn1Cc1ccc(F)c(C(F)(F)F)c1 readout_kind="Foxtail, Giant plant response rating" recorded_result=30
chemical_string=CCCc1cc(C(=O)NC2CC2)nn1Oc1ccnc(C(F)(F)F)c1 readout_kind="Foxtail, Giant plant response rating" recorded_result=80
chemical_string=CCc1cc(-c2ccc(Br)cc2)nn1Cc1ccnc(C(F)(F)F)c1 readout_kind="Foxtail, Giant plant response rating" recorded_result=20
chemical_string=CCNC(=O)c1cc(C)n(Cc2cccc(OC(F)(F)F)c2)n1 readout_kind="Foxtail, Giant plant response rating" recorded_result=30
chemical_string=CCCc1cc(C(=O)NCC(F)(F)F)nn1Cc1ccnc(C(F)(F)F)c1 readout_kind="Foxtail, Giant plant response rating" recorded_result=100
chemical_string=Cc1cc(C(=O)NCC(F)(F)F)nn1Cc1ccc(F)c(C(F)(F)F)c1 readout_kind="Foxtail, Giant plant response rating" recorded_result=30

Endpoint output: Foxtail, Giant plant response rating of Cc1cc(C(=O)NC2CC2)nn1Cc1cccc(OC(F)(F)F)c1 . Value? 50

What do you have for CCc1cc(C(=O)NCC(F)(F)F)nn1Oc1cccc(C(F)(F)F)n1 ? 0

What do you have for Cc1cc(C(=O)NCC(F)(F)C(F)(F)F)nn1Cc1cccc(C(F)(F)F)c1 ? 20

---

System: johnsongrass
Assay: Test C postemergence
Format: in vivo, Sorghum halepense
Conditions: postemergence; 125 g ai/ha; scale 0 to 100, 0 no effect, 100 complete control
Readout Kind: Plant response rating, Johnsongrass
Give a plain numeric answer without units written out.

Take a look at these entries with their results.
molecule="CCCc1cc(C(=O)NOCC)nn1Cc1ccnc(C(F)(F)F)c1 [Compound 185]" readout_kind="Plant response rating, Johnsongrass" recorded_result=0
molecule="CCCc1cc(C(=O)NCC(F)(F)F)nn1Cc1ccnc(C(F)(F)F)c1 [Compound 105]" readout_kind="Plant response rating, Johnsongrass" recorded_result=45
molecule="CCCNC(=O)c1cc(CCC)n(Cc2cc(C(F)(F)F)nn2C)n1 [Compound 198]" readout_kind="Plant response rating, Johnsongrass" recorded_result=5

// lookup Plant response rating, Johnsongrass | system=johnsongrass | key= CCc1cc(C(=O)NOC(C)C)nn1Cc1ccnc(C(F)(F)F)c1 [Compound 101] 5

What do you have for CCc1cc(C(=O)NC2CC2)nn1Cc1ccnc(OC(F)F)c1 [Compound 98] ? 5

What do you have for CCNC(=O)c1cc(CC)n(Cc2ccnc(OC(F)F)c2)n1 [Compound 130] ? 5

What do you have for CCc1cc(C(=O)NCC2CC2)nn1Cc1ccnc(C(F)(F)F)c1 [Compound 199] ? 40

---

Tested on: oilseed rape
Assay: Test D postemergence
Assay type: in vivo, Brassica napus
Settings: Postemergence, 31 g ai/ha, scale 0 to 100
Readout Kind: Oilseed Rape plant response rating

chemical_string=CCc1cc(C(=O)NC(C)C)nn1Cc1ccnc(C(F)(F)F)c1 recorded_result=25
chemical_string=CCOc1cc(C(=O)NC2CC2)nn1Cc1ccnc(C(F)(F)F)c1 recorded_result=40
chemical_string=CCCc1cc(C(=O)NCC(F)(F)F)nn1Cc1ccnc(C(F)(F)F)c1 recorded_result=40

Next compound, Oilseed Rape plant response rating to be filled in.
Endpoint output: Oilseed Rape plant response rating of CCOc1cc(C(=O)NC(C)C)nn1Cc1ccnc(C(F)(F)F)c1 . Value? 55
